Entries and their measured z-score follow.
Experiment: JC-1 mitochondrial signal, unstimulated HepG2 cells – cell-based, JC-1 fluorescence, 24 h, 100 nL compound, profiling panel (AID 1167); note: test concentration not given here
Details: HepG2 mitochondrial potential, higher = more signal
No unit in the answer, please; the number alone is enough.

Below: 3 molecules and their reported z-score.
{"MOLECULE": "COCCOC(=O)N1C(=O)[C@@]2(c3cc(C#CC4(O)CCCCCC4)ccc31)[C@H](c1ccccc1OCCO)N1[C@H](c3ccccc3)[C@H](c3ccccc3)OC(=O)[C@H]1[C@@H]2C(=O)N1CCc2cc(OC)c(OC)cc2C1", "z-score": -0.0229}
{"MOLECULE": "O=C(O)[C@@]1(CCS(=O)(=O)c2ccccc2)N=C(c2ccc(OCCCO)cc2)O[C@H]1c1ccccc1", "z-score": 0.591}
{"MOLECULE": "COCCOC(=O)N1C(=O)[C@@]2(c3cc(C#CCCO)ccc31)[C@H](c1ccc(O)cc1)N1[C@H](c3ccccc3)[C@H](c3ccccc3)OC(=O)[C@H]1[C@@H]2C(=O)N1CCN(c2ncccn2)CC1", "z-score": 0.0243}

Fill in the blank: the reported z-score of `COCC(=C=CC[C@H](O)c1cccc(OCCO)c1)CCO` is ____.
-0.206

Fill in the blank: the reported z-score of `CC(C)[Si](C#C[Si](C(C)C)(C(C)C)C(C)C)(O[C@H](C)c1cn(Cc2ccccc2)nn1)C(C)C` is ____.
1.92

Fill in the blank: the reported z-score of `C=CC[C@]1(C(=O)N2CCOCC2)N=C(c2ccc(OCCCO)cc2)O[C@H]1c1ccccc1N=[N+]=[N-]` is ____.
1.23

Fill in the blank: the reported z-score of `C#CCN1[C@H](/C=C/C2CC2)[C@H](Cc2ccccc2)OC(=O)[C@@H]1Cc1ccccc1` is ____.
1.31

Fill in the blank: the reported z-score of O=C1OCCC=C[C@H]2OC34C=CCN(CCN5CCOCC5)C(=O)[C@H]3N(CCCCCO)C(=O)[C@@H]4C12 (stereo not given in full) is ____.
0.575

Fill in the blank: the reported z-score of `CCOC(=O)C1=CC[C@@H](c2ccc(C(F)(F)F)cc2)N(S(=O)(=O)c2ccc(C)cc2)[C@H]1c1ccccc1` is ____.
-1.59

Fill in the blank: the reported z-score of `O=C(CS)NCCCCCNC(=O)[C@@H]1C[C@@H]2C(=O)NCC(=O)N2[C@@H]1c1cccc(OCCO)c1` is ____.
1.85

Fill in the blank: the reported z-score of `O=C(NCc1ccccc1)[C@@H]1c2ccccc2C(=O)N(C2Cc3ccccc3C2)[C@H]1c1ccc(CO)cc1` is ____.
1.52

Fill in the blank: the reported z-score of `COCCCNC(=O)[C@@]1(Cc2ccccc2CN=[N+]=[N-])N=C(c2ccc(OCCCO)cc2)O[C@H]1c1ccccc1CN=[N+]=[N-]` is ____.
1.57

Fill in the blank: the reported z-score of OCCCC1=CC(C2CC2)N(Cc2cccc(OC(F)(F)F)c2)CC1 (stereo not given) is ____.
0.64

Fill in the blank: the reported z-score of CCCCCCCCCCC(O)C1C=CC2C(=O)NC(=O)C2N1Nc1ccc(Cl)cc1Cl (stereo not given) is ____.
-3.53

Fill in the blank: the reported z-score of `NC(=O)[C@@]1(Cc2ccccc2)N=C(c2ccc(OCCCO)cc2)O[C@H]1c1ccccc1` is ____.
-0.576
